Answer each item with its documented GI50.
- System: A549
- assayText: NCI tumour cell line growth inhibition, 48 h
Active and inactive are the calls of the source. Cut-off read from the data, not from the text of the source: active = GI50 up to about 1.1 µM and inactive = higher.

Which value of GI50 has been reported for "C/C(=N\Nc1ccccc1)c1sc(-c2nc(C)c(/C(C)=N/Nc3ccccc3)s2)nc1C" in the records?
13.5 µM (inactive)

// query GI50 value for entry CN(C)CC1CCC/C(=C\c2ccc(Cl)cc2)C1=O (stereo not given)
16.9 µM (inactive)

Return reported GI50; argument: CC1(C)OC2CC3COC(=O)C3CC2O1 (stereo not given)
> 100 µM (inactive)

Using the record for "COC(=O)[C@H](Cc1ccccc1)NC(=O)c1ccc(CNC(=O)/C=C/c2csc(-c3ccccc3)n2)cc1" , report its GI50.
16.1 µM (inactive)

Entry "Cc1cc(C)c2c(n1)S(=O)(=O)N(CCCN1CCN(c3cccc(Cl)c3)CC1)C(C(=O)c1ccc(Br)cc1)=C2O" has what GI50?
22.1 µM (inactive)

Would you mind telling me what GI50 value was observed for O=C(NC(Cc1ccc(I)cc1)C(=O)O)c1ccc(Cl)cc1 (stereo not given) ?
> 100 µM (inactive)

Would you kindly share the measured GI50 for "COc1ccc2c(-c3cc4ccccc4o3)cc(=O)oc2c1" ?
44 µM (inactive)

I am curious: what GI50 value has been reported for "Clc1ccc(CSCc2ccc(Cl)cc2Cl)c(Cl)c1" ?
34.3 µM (inactive)

Please give the measured GI50 for this molecule: "COC(=O)[C@]12CCC(C)(C)C[C@H]1[C@H]1C(=O)C=C3[C@@]4(C)C=C(C#N)C(=O)C(C)(C)[C@@H]4CC[C@@]3(C)[C@]1(C)CC2"
0.0294 µM (active)

Please give the measured GI50 for this molecule: "COc1cc(Br)c(/C=N\c2cccc3ccc(OS(=O)(=O)c4ccc([N+](=O)[O-])cc4)cc23)cc1OC"
33.7 µM (inactive)

# get_value(readout='GI50', item= CC(=O)O[C@H]1C[C@]2(C)C(CCC3O[C@@]32C)[C@@]2(CC(c3ccoc3)OC2O)[C@@H]1C (stereo not given in full) )
> 100 µM (inactive)

Quick one: GI50 of "Cc1cc(O)cc2oc(=O)c3c(O)cc(O)cc3c12" ?
16.1 µM (inactive)

// lookup GI50 for "Cn1ncnc1CCc1ccccc1"
> 100 µM (inactive)

Look at this molecule and give its reported GI50. "CNc1cc(OCc2ccccc2)c(OC)cc1C(=O)N1CCC[C@H]1CO"
> 100 µM (inactive)

Please report the recorded GI50 for Nc1ncnc2c1ncc(=O)n2C1CC(O)C(CO)O1 (stereo not given) .
> 100 µM (inactive)

Would you mind telling me what GI50 value was observed for CC(NC(=O)C(N)CC(=O)O)C(=O)OC12CC3CC(CC(C3)C1)C2 (stereo not given) ?
> 100 µM (inactive)

# input molecule: "O=C1Nc2ccc(Br)cc2/C1=N/c1ccc2c(c1)OCO2" ; wanted: its GI50
46.8 µM (inactive)

Fill blank: measured GI50 of the molecule "CCOc1ccc(-c2nc(-c3oc4ccccc4c(=O)c3OC(C)=O)cs2)cc1" is ____.
> 10 µM (inactive)

Request the reported GI50 associated with C=CC1OC(CCCOC(=O)C(C)(C)C)O[C@@H]1CC (stereo not given in full)
> 100 µM (inactive)

Fill in: GI50 of "O=C1c2c(c3c4ccccc4[nH]c3c3[nH]c4ccccc4c23)C(=O)N1Cc1ccccc1" is ___
3.48 µM (inactive)
